Assay: Phase 1 clinical trial, single administration: pharmacokinetics
Format: in vivo, healthy adult males
Conditions: human, plasma, po, read-out: time to reach peak plasma concentrations
Property label: Tmax

Q) Bench note: what Tmax did CCCCCCCCCCn1cc(CCC(N)(CO)CO)nn1 [NXC736] show?
A) ~1 h

* * *

Experiment: Phase 1 clinical trial, single administration: pharmacokinetics
Assay type: in vivo, healthy adult males
Settings: human, in vivo, po, read-out: average elimination half-life (converted)
Property label: half-life

Q) Bench note: what half-life did CCCCCCCCCCn1cc(CCC(N)(CO)CO)nn1 [NXC736] show?
A) ~10 h
